These measurements were taken from the supplement of paper PMC9262897.

Task for the reader: assign each of the following molecules its reported growth.
- System: E. coli TESEC Mtb Alr
- assay_notes: growth (OD600 after 10 h); higher = more growth (less inhibition)
- test_conditions: arabinose 1000000 nM; compound 0.1 mM; raw OD600 reference: median of DMSO wells 0.193, cell-free background 0.041
Counter-ions that a name gives are not always drawn.
Number only, please.

Record summary for CC(C)(C)CC(C)(C)c1ccc(OCCOCC[N+](C)(C)Cc2ccccc2)cc1 [Benzethonium chloride] : reported growth = 0.041

Record summary for CC(=O)OC(C)C[N+](C)(C)C (stereo not drawn) [Methacholine chloride] : reported growth = 0.187

Record summary for C#C[C@]1(O)CC[C@H]2[C@@H]3CCC4=C(CCC(=O)C4)[C@H]3CC[C@@]21C [Norethynodrel] : reported growth = 0.0575

Record summary for CN1CCCN=C1/C=C/c1cccs1 [Pyrantel tartrate] : reported growth = 0.187

Record summary for Cc1nnc(SCC2=C(C(=O)O)N3C(=O)[C@@H](NC(=O)Cn4cnnn4)[C@H]3SC2)s1 [Cefazolin sodium salt] : reported growth = 0.183

Record summary for CC1(C)S[C@@H]2[C@H](NC(=O)[C@H](N)c3ccccc3)C(=O)N2[C@H]1C(=O)O [Ampicillin trihydrate] : reported growth = 0.193

Record summary for CNCC[C@@H](Oc1cccc2ccccc12)c1cccs1 [(R)-Duloxetine hydrochloride] : reported growth = 0.0447

Record summary for CC(C)C[C@H](NC(=O)[C@@H](O)[C@H](N)Cc1ccccc1)C(=O)O [Ubenimex] : reported growth = 0.185

Record summary for Cn1c([N+](=O)[O-])cnc1COC(N)=O [Ronidazole] : reported growth = 0.149

Record summary for CC(=O)c1ccc2c(c1)N(CCCN1CCC(CCO)CC1)c1ccccc1S2 [Piperacetazine] : reported growth = 0.115

Record summary for CCOC(=O)C1=C[C@]2(CC)CCCN3CCc4c(n1c1ccccc41)[C@@H]32 [Vinpocetine] : reported growth = 0.145

Record summary for Clc1ccc(CCC(Cn2ccnc2)Sc2c(Cl)cccc2Cl)cc1 (stereo not drawn) [Butoconazole nitrate] : reported growth = 0.0664

Record summary for Cc1nnc(NS(=O)(=O)c2ccc(N)cc2)s1 [Sulfamethizole] : reported growth = 0.155

====

Task for the reader: assign each of the following molecules its reported growth.
- Test system: E. coli TESEC Mtb Alr
- assay_notes: growth (OD600 after 10 h); higher = more growth (less inhibition)
- test_conditions: arabinose 1000 nM; compound 0.1 mM; raw OD600 reference: median of DMSO wells 0.294, cell-free background 0.041
Where a name gives a salt, the structure may show the parent alone.

Record summary for C=CCc1ccccc1OCC(O)CNC(C)C (centres undefined) [Alprenolol hydrochloride] : reported growth = 0.267

Record summary for COc1ccc([C@@H]2Sc3ccccc3N(CCN(C)C)C(=O)[C@@H]2OC(C)=O)cc1 [Diltiazem hydrochloride] : reported growth = 0.239

Record summary for O=C(NCCNCC(O)COc1ccc(O)cc1)N1CCOCC1 (centres undefined) [Xamoterol hemifumarate] : reported growth = 0.303

Record summary for CC1=C(/C=C/C(C)=C/C=C/C(C)=C\C(=O)O)C(C)(C)CCC1 : reported growth = 0.274

====

- Test system: E. coli TESEC Alr+ wild-type control
- assay_notes: growth (OD600 after 10 h); higher = more growth (less inhibition)
- test_conditions: compound 0.1 mM; raw OD600 reference: median of DMSO wells 0.241, cell-free background 0.041
Structures can show the parent of a compound that is named as a salt.
reported_property: growth
Number only, please.

Record summary for CC(NCCC(c1ccccc1)c1ccccc1)c1ccccc1 (stereo unspecified) [Fendiline hydrochloride] : reported growth = 0.0397

Record summary for CO[C@H]1/C=C/O[C@@]2(C)Oc3c(C)c(O)c4c(O)c(c(/C=N/N5CCN(C)CC5)c(O)c4c3C2=O)NC(=O)/C(C)=C\C=C\[C@H](C)[C@H](O)[C@@H](C)[C@@H](O)[C@@H](C)[C@H](OC(C)=O)[C@@H]1C : reported growth = 0.0429

Record summary for CO[C@@]1(NC(=O)CSCC#N)C(=O)N2C(C(=O)O)=C(CSc3nnnn3C)CS[C@@H]21 [Cefmetazole sodium salt] : reported growth = 0.0393

Record summary for COCCOC(=O)C1=C(C)NC(C)=C(C(=O)OC(C)C)C1c1cccc([N+](=O)[O-])c1 (stereo unspecified) : reported growth = 0.18

Record summary for CCCCOc1ccc(OCCCN2CCOCC2)cc1 [Pramoxine hydrochloride] : reported growth = 0.199

Record summary for C[C@H](N)[C@H](O)c1cccc(O)c1 [Metaraminol bitartrate] : reported growth = 0.245
